# System: human NOD2 signaling
# ASSAY_COMMENT: Inhibition of human NOD2 signaling in HEK-Blue-hNOD2 cells (L18-MDP stimulated, SEAP reporter)
# Type: cell-based
# PARTICULARS: Homo sapiens, HEK-Blue hNOD2, HEK-Blue-hNOD2 cells, NOD2 ligand stimulation, SEAP reporter; read-out: hNOD2 IC50
ASSAY_ENDPOINT: IC50 (nM)

{"COMPOUND": "CNC(=O)c1ccc2nccc(Oc3c(C)cc(CC(=O)Nc4cnn(C(C)(C)C)c4)cc3C)c2c1", "TARGET": "human NOD2 signaling", "RESULT_UNIT": "nM", "IC50": 2.2}

1: [2H]C([2H])([2H])NC(=O)c1ccc2nccc(Oc3ccc(CC(=O)Nc4cnn(C(C)(C)C)c4)cc3C(F)F)c2c1
2: Cc1cc(CC(=O)Nc2cnn(C(C)(C)C)c2)c(F)cc1Oc1ccnc2ccc(C(C)(C)C(N)=O)cc12
// query API: POST /compare with 1 and 2 ; response names the item with higher IC50. The response must carry the label of the picked entry.
// result 2
(2: 24.4 nM, 1: 3.2 nM)

---

// values below are reported IC50
# TARGET: RIPK2 enzyme (Homo sapiens)
# Construct: purchased Carna 09-128
# ASSAY_COMMENT: RIPK2 inhibition (ADP-Glo Kinase Assay)
# Type: biochemical
# PARTICULARS: RIPK2 5 nM, ATP 150 μM, MBP substrate, read-out: RIPK2 IC50

Consider the following illustrative entries.
{"SUBSTANCE_SMILES": "Cc1cc(CC(=O)Nc2cc(C(C)(C)C)[nH]n2)cc(F)c1Oc1ccnc2cc(F)c(C(N)=O)cc12", "ASSAY_ENDPOINT": "IC50", "RESULT": "< 2.5 nM"}
{"SUBSTANCE_SMILES": "Cc1cc(CC(=O)Nc2cnn(C(C)(C)C)c2)c(F)cc1Oc1ccnc2ccc(-c3nccnc3C)cc12", "ASSAY_ENDPOINT": "IC50", "RESULT": "< 2.5 nM"}
{"SUBSTANCE_SMILES": "Cc1c(Oc2ccnc3ccc(C4(C(N)=O)CCC4)cc23)cc(F)c(CC(=O)Nc2cnn(C(C)(C)C)c2)c1F", "ASSAY_ENDPOINT": "IC50", "RESULT": "3.8 nM"}
{"SUBSTANCE_SMILES": "CNC(=O)c1ccc2nccc(Oc3cc(F)c(CC(=O)Nc4cnn(C(C)(C)C)c4)cc3Cl)c2c1", "ASSAY_ENDPOINT": "IC50", "RESULT": "< 2.5 nM"}
{"SUBSTANCE_SMILES": "[2H]C([2H])([2H])n1nc(NC(=O)Cc2ccc(Oc3ccnc4ccc(S(C)(=O)=O)cc34)cc2F)cc1C(C)(C)C", "ASSAY_ENDPOINT": "IC50", "RESULT": "< 2.5 nM"}
{"SUBSTANCE_SMILES": "CC(C)(C)n1cc(NC(=O)Cc2ccc(Oc3ncnc4ccc(OC5COC5)cc34)cc2F)cn1", "ASSAY_ENDPOINT": "IC50", "RESULT": "18.5 nM"}

Entry `Cc1c(Oc2ccnc3ccc(S(=O)(=O)C4CCC4)cc23)ccc(CC(=O)Nc2cnn(C(C)(C)C)c2)c1F` , IC50 reported as < 2.5 nM

---

# TARGET: RIPK2 enzyme (Homo sapiens, UniProt O43353)
# Construct: purchased Carna 09-128
# Sequence (O43353 1-299 limits assumed): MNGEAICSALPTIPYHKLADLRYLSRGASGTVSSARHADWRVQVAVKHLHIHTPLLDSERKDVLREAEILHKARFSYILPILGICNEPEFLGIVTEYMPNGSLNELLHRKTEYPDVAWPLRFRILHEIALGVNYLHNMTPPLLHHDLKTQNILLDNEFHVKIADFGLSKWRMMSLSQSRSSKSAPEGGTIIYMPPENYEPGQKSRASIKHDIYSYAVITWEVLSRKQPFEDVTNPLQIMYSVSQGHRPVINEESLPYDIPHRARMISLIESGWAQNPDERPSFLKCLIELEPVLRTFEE
# ASSAY_COMMENT: RIPK2 inhibition (ADP-Glo Kinase Assay)
# Type: biochemical
# PARTICULARS: RIPK2 5 nM, ATP 150 μM, MBP substrate, read-out: RIPK2 IC50
ASSAY_ENDPOINT: IC50

Below are worked cases with known answers.
{"COMPOUND": "COc1ccc2ncnc(Oc3ccc(CC(=O)Nc4noc(C(C)(C)C)n4)c(F)c3)c2c1", "IC50": "14.4 nM"}
{"COMPOUND": "CC(C)(C)n1cc(NC(=O)Cc2ccc(Oc3ccnc4ccc(NS(C)(=O)=O)cc34)cc2F)cn1", "IC50": "< 2.5 nM"}
{"COMPOUND": "COc1ccc2ncnc(Oc3cnc(C(C)C(=O)Nc4cnn(C(C)(C)C)c4)c(F)c3)c2c1 (single isomer, unassigned)", "IC50": "70.7 nM"}
{"COMPOUND": "[2H]C([2H])([2H])NC(=O)c1ccc2nccc(Oc3ccc(CC(=O)Nc4cnn(C(C)(C)C)c4)cc3C(F)F)c2c1", "IC50": "< 2.5 nM"}
{"COMPOUND": "Cc1c(Oc2ccnc3ccc(S(C)(=O)=O)cc23)cc(F)c(CC(=O)Nc2cnn(C(C)(C)C)c2)c1F", "IC50": "< 2.5 nM"}

Per the records, this compound ( `CNC(=O)c1cc2c(Oc3c(C)cc(CC(=O)Nc4cnn(C(C)(C)C)c4)cc3Cl)ccnc2cc1F` ) has IC50 equal to < 2.5 nM

// field: IC50; key: CCS(=N)(=O)c1ccc2nccc(Oc3ccc(CC(=O)Nc4cnn(C(C)(C)C)c4)c(F)c3C)c2c1 (single isomer, unassigned) [Compound 536] ; value = < 2.5 nM

Form field IC50, entry `CC(C)(C)n1cc(NC(=O)Cc2cc(Cl)c(Oc3ccnc4ccc(S(C)(=O)=O)cc34)cc2F)cn1` : < 2.5 nM

IC50 for `Cc1cc(CC(=O)Nc2cnn(C(C)(C)C)c2)c(F)cc1Oc1ccnc2ccc(C(=O)N3CC(O)C3)cc12` is < 2.5 nM

Form: compound = `Cc1c(Oc2ccnc3ccc(S(C)(=O)=O)cc23)ccc(CC(=O)Nc2cnn(C(C)(C)C)c2)c1F` ; IC50 = < 2.5 nM

Record `Cc1cc(CC(=O)Nc2cnn(C(C)(C)C)c2)ccc1Oc1ccnc2ccc(OC3CCN(CC(F)F)CC3)cc12` , field IC50: < 2.5 nM

`CC(=O)N1CCC(Oc2ccc3nccc(Oc4cnc(CC(=O)Nc5cnn(C(C)(C)C)c5)c(F)c4)c3c2)CC1` yielded IC50 of 4.1 nM

response.value for `[2H]C([2H])([2H])c1cc(CC(=O)Nc2cnn(C(C)(C)C)c2)ccc1Oc1ccnc2ccc(S(C)(=O)=O)cc12` (field: IC50) = < 2.5 nM

Reported IC50 for `CNC(=O)c1ccc2nccc(Oc3cc(F)c(CC(=O)Nc4cnn(C(C)(C)C)c4)cc3C)c2c1` was < 2.5 nM

---

# TARGET: RIPK2 enzyme (Homo sapiens, UniProt O43353)
# Construct: purchased Carna 09-128
# ASSAY_COMMENT: RIPK2 inhibition (ADP-Glo Kinase Assay)
# Format: biochemical
# PARTICULARS: RIPK2 5 nM, ATP 150 μM, MBP substrate, read-out: RIPK2 IC50
# Procedure: RIPK2 inhibition was measured as follows: The V9102 ADP-Glo Kinase Assay (including ultrapure ATP, 10 mM) was purchased from Promega. […] Method: In a 384 well plate, 10 nL of test compound was dispensed using Echo550 and mixed with RIPK2 enzyme (final concentration of 5 nM) in assay buffer for 30 minutes at room temperature. […] The resulting luminescent signal was measured with an Envision reader to determine the amount of ADP produced. […]
pIC50: −log10 of the molar value.
ASSAY_ENDPOINT: pIC50

A selection of reference data follows.
{"COMPOUND": "CNC(=O)c1ccc2nccc(Oc3cc(F)c(CC(=O)Nc4cnn(C56CC(C5)C6)c4)c(F)c3C)c2c1 [Compound 557]", "pIC50": "> 8.60"}
{"COMPOUND": "Cc1c(Oc2ccnc3ccc(C(=O)N4CCC(O)C4)cc23)ccc(CC(=O)Nc2cnn(C(C)(C)C)c2)c1F (single isomer, unassigned) [Compound 351]", "pIC50": "> 8.60"}

Proceed to the following item.
The measured pIC50 associated with Cc1cc(CC(=O)Nc2cnn(C(C)(C)C)c2)c(F)cc1Oc1ccnc2ccc(C(=O)N3CC(N)C3)cc12 [Compound 374] reads > 8.60

---

# System: RIPK2 activity in vivo, as measured by plasma levels of cytokine MCP-1
# ASSAY_COMMENT: In vivo inhibition of monocyte chemoattractant protein-1 (MCP-1), acute mouse MDP challenge
# PARTICULARS: female C57BL/6 mice, single p.o. dose 3 mg/kg 1 h before i.p. MDP 8 mpk, plasma 2 h after MDP
ASSAY_ENDPOINT: % MCP-1 inhibition (%)
Your answer should be a plain number; it is taken to be in %.

Look over these answered cases.
{"SUBSTANCE_SMILES": "Cc1cc(CC(=O)Nc2cnn(C(C)(C)C)c2)cc(C)c1Oc1ccnc2cc(F)c(C(N)=O)cc12", "TARGET": "RIPK2 activity in vivo, as measured by plasma levels of cytokine MCP-1", "% MCP-1 inhibition / %": 75}
{"SUBSTANCE_SMILES": "CCS(=O)(=O)c1ccc2nccc(Oc3ccc(CC(=O)Nc4cnn(C(C)(C)C)c4)cc3C)c2c1", "TARGET": "RIPK2 activity in vivo, as measured by plasma levels of cytokine MCP-1", "% MCP-1 inhibition / %": 111}
{"SUBSTANCE_SMILES": "Cc1cc(CC(=O)Nc2cnn(C(C)(C)C)c2)ccc1Oc1ccnc2ccc(S(C)(=O)=O)cc12", "TARGET": "RIPK2 activity in vivo, as measured by plasma levels of cytokine MCP-1", "% MCP-1 inhibition / %": 101}

The molecule `Cc1c(Oc2ccnc3ccc(S(C)(=O)=O)cc23)ccc(CC(=O)Nc2cnn(C(C)(C)C)c2)c1F` showed % MCP-1 inhibition equal to 99
